# System: EPHB6 (human)
# Assay: KINOMEscan competition binding
# Assay setup: compound 10.0 µM
Decision: kinase still bound, per cent of control beneath 60% gives Met; kinase still bound, per cent of control meeting or exceeding 60% gives Not met.

Asked: In plain terms, does COc1cc2c(Nc3ccc(NC(=O)c4ccccc4)cc3)ncnc2cc1OCCCN1CCOCC1 come in under 60% for kinase still bound, per cent of control?
Given back: Met

Asked: In plain terms, does C=CC(=O)Nc1ccc(C(=O)c2sc(Nc3ccc(N4CCN(C)CC4)cc3OC)nc2N)cc1 come in under 60% for kinase still bound, per cent of control?
Given back: Not met

Asked: In plain terms, does CC(=O)c1c(C)c2cnc(Nc3ccc(N4CCNCC4)cn3)nc2n(C2CCCC2)c1=O come in under 60% for kinase still bound, per cent of control?
Given back: Not met

Asked: In plain terms, does CCc1nc(-c2cccc(C)c2)c(-c2ccnc(NC(=O)c3ccccc3)c2)s1 come in under 60% for kinase still bound, per cent of control?
Given back: Met

Asked: In plain terms, does COc1cc2ncnc(Nc3cccc(Cl)c3)c2cc1OC come in under 60% for kinase still bound, per cent of control?
Given back: Met

Asked: In plain terms, does N#Cc1cc(-c2ccnc(Nc3ccc(-n4cnc(-c5cccnc5)n4)cc3)n2)cc(N2CCOCC2)c1 come in under 60% for kinase still bound, per cent of control?
Given back: Met

Asked: In plain terms, does CCN(CCO)CCCOc1ccc2c(Nc3cc(CC(=O)Nc4cccc(F)c4)[nH]n3)ncnc2c1 come in under 60% for kinase still bound, per cent of control?
Given back: Met

Asked: In plain terms, does CC1=C(C(=O)Nc2cc3cn[nH]c3cc2F)C(c2ccc(C(F)(F)F)cc2)CC(=O)N1 (centres undefined) come in under 60% for kinase still bound, per cent of control?
Given back: Not met

Asked: In plain terms, does Cc1cn(-c2cc(C(=O)Nc3ccc(C)c(NC(=O)c4ccno4)c3)cc(C(F)(F)F)c2)cn1 come in under 60% for kinase still bound, per cent of control?
Given back: Not met

###

Can you tell me kinase still bound, per cent of control for the items I'm about to list?
# System: MAP2K5 (human) (UniProt Q13163)
# Sequence (Q13163 whole entry, looked up): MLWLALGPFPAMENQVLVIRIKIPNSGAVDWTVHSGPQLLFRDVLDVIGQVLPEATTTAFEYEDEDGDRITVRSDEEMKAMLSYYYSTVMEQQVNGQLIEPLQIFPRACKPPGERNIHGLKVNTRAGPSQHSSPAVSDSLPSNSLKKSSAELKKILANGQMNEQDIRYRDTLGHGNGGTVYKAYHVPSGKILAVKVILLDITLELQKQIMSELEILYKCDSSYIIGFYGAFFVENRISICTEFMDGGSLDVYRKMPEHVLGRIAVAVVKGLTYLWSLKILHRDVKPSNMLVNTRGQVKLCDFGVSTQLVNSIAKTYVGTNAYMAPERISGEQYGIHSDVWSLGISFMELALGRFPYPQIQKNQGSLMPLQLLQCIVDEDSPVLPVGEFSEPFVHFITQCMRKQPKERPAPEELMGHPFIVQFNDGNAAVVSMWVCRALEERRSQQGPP
# Assay: KINOMEscan competition binding
# Assay setup: compound 10.0 µM
Reply numerically in %, unit not repeated.

Asked: Find the recorded kinase still bound, per cent of control belonging to CCc1nc(-c2cccc(C)c2)c(-c2ccnc(NC(=O)c3ccccc3)c2)s1 and report it.
Given back: 5.2

Asked: Find the recorded kinase still bound, per cent of control belonging to COc1cc2ncnc(Nc3cccc(Cl)c3)c2cc1OC and report it.
Given back: 3.5

Asked: Find the recorded kinase still bound, per cent of control belonging to CCN1CCN(Cc2ccc(NC(=O)c3ccc(C)c(/C=C/c4cnc5[nH]ccc5c4OC)c3)cc2C(F)(F)F)CC1 and report it.
Given back: 0.2

Asked: Find the recorded kinase still bound, per cent of control belonging to CC1=C(C(=O)Nc2cc3cn[nH]c3cc2F)C(c2ccc(C(F)(F)F)cc2)CC(=O)N1 (centres undefined) and report it.
Given back: 71

###

# System: UniProt:Q13554
# Sequence (Q13554 whole entry, looked up): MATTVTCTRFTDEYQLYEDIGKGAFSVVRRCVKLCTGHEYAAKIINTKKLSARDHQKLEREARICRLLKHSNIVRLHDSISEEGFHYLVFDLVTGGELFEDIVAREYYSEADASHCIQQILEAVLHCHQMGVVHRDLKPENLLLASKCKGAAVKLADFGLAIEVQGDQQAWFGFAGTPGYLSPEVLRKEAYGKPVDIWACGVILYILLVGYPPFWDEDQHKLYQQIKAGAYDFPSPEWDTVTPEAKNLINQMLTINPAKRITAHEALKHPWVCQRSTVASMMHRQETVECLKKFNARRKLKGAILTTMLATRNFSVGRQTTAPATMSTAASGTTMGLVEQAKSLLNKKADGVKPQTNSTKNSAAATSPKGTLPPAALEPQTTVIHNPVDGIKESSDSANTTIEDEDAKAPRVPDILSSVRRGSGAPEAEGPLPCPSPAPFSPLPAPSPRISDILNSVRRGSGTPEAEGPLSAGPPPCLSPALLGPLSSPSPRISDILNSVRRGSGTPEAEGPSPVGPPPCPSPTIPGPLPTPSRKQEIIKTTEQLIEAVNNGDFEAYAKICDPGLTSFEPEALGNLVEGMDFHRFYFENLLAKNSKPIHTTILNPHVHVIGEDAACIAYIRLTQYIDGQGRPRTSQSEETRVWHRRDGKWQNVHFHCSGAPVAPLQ
# Assay: KINOMEscan competition binding
# Assay setup: compound 10.0 µM
Readout label: kinase still bound, per cent of control

Asked: API: value(readout=kinase still bound, per cent of control, system=UniProt:Q13554) for record Cc1cn(-c2cc(C(=O)Nc3ccc(C)c(NC(=O)c4ccno4)c3)cc(C(F)(F)F)c2)cn1
Given back: 100%

Asked: API: value(readout=kinase still bound, per cent of control, system=UniProt:Q13554) for record CC1=C(C(=O)Nc2cc3cn[nH]c3cc2F)C(c2ccc(C(F)(F)F)cc2)CC(=O)N1 (centres undefined)
Given back: 94%

Asked: API: value(readout=kinase still bound, per cent of control, system=UniProt:Q13554) for record C=CC(=O)Nc1ccc(C(=O)c2sc(Nc3ccc(N4CCN(C)CC4)cc3OC)nc2N)cc1
Given back: 0%

Asked: API: value(readout=kinase still bound, per cent of control, system=UniProt:Q13554) for record O=c1[nH]c2ccccc2n1C1CCN(Cc2ccc(-c3nc4cc5[nH]cnc5cc4nc3-c3ccccc3)cc2)CC1
Given back: 86%

Asked: API: value(readout=kinase still bound, per cent of control, system=UniProt:Q13554) for record CCN1CCN(Cc2ccc(NC(=O)c3ccc(C)c(/C=C/c4cnc5[nH]ccc5c4OC)c3)cc2C(F)(F)F)CC1
Given back: 100%

Asked: API: value(readout=kinase still bound, per cent of control, system=UniProt:Q13554) for record COc1cc(N2CCC(C(N)=O)CC2)ccc1Nc1nc(N)c(Cl)c(Nc2ccccc2S(=O)(=O)C(C)C)n1
Given back: 100%

Asked: API: value(readout=kinase still bound, per cent of control, system=UniProt:Q13554) for record CC(=O)c1c(C)c2cnc(Nc3ccc(N4CCNCC4)cn3)nc2n(C2CCCC2)c1=O
Given back: 4.4%

Asked: API: value(readout=kinase still bound, per cent of control, system=UniProt:Q13554) for record COc1cc2ncnc(Nc3cccc(Cl)c3)c2cc1OC
Given back: 95%

Asked: API: value(readout=kinase still bound, per cent of control, system=UniProt:Q13554) for record COc1cc2c(Nc3ccc(NC(=O)c4ccccc4)cc3)ncnc2cc1OCCCN1CCOCC1
Given back: 78%
